# assayed-target: Tyk2 (Homo sapiens (Human), UniProt P29597)
# Sequence (P29597 whole entry): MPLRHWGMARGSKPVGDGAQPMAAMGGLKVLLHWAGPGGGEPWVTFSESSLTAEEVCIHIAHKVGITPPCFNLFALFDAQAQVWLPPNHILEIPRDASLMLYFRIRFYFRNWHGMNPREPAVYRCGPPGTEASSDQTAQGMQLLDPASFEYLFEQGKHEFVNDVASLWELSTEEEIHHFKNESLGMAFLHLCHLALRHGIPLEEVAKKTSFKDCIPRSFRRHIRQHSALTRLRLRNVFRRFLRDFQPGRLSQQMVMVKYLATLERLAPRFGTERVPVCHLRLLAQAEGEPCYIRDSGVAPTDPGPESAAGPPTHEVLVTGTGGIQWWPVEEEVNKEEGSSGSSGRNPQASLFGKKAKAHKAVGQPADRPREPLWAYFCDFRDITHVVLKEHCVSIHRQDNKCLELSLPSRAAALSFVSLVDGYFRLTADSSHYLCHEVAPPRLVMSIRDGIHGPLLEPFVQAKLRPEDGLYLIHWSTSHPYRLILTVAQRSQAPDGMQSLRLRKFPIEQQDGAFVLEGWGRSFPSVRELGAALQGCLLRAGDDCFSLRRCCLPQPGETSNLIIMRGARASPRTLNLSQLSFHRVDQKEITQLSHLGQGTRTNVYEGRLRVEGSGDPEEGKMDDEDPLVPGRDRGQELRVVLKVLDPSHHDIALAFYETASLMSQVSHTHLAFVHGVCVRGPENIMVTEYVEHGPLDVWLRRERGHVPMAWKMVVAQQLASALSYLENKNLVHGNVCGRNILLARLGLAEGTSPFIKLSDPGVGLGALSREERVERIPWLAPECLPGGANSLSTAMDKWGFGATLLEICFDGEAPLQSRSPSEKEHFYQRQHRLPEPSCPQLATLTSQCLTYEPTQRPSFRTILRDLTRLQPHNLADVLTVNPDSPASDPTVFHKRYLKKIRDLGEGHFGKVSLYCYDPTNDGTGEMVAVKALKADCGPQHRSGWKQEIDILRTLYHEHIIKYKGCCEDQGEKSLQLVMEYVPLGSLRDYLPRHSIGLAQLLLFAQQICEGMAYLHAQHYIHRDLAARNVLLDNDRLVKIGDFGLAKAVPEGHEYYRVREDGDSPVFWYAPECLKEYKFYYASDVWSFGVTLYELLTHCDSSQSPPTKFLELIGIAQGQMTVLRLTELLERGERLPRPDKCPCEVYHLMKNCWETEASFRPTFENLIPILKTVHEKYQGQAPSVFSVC
# experiment-description: pSTAT4 Cell Assay (MSD, NK92 cells)
# Format: cell-based
# test-parameters: MSD
recorded-metric: IC50

Solved entries (count: 5):
COCCOc1cnc(NC(C)=O)cc1Nc1cc(C)nc(C(C)(F)CF)n1 (centres unmarked) : 0.01 to 0.1 µM
CC(=O)Nc1cc(Nc2cc(C)nc(C(C)(F)F)n2)c(-c2ccc(F)c(C#N)n2)cn1 : ≤ 0.01 µM
CCOc1cnc(NC(=O)CCOC)cc1Nc1cc(C)nc(C(C)(F)F)n1 : 0.1 to 1 µM
CC(=O)Nc1cc(Nc2ccnc(C(C)(F)F)n2)c(-c2cn(C)c(C#N)n2)cn1 : ≤ 0.01 µM
CC(=O)Nc1cc(Nc2cc(C)nc(C(C)(F)F)n2)c(-c2cc(C#N)ccn2)cn1 : 0.01 to 0.1 µM

Next item in the queue.
INPUT: What value of measured IC50 is listed for `CC(=O)Nc1cc(Nc2cc(C)nc(C(C)(F)F)n2)c(-c2ccn(CC(C)(C)O)n2)cn1` ?
OUTPUT: ≤ 0.01 µM
